Listed below: pKi values for each entry.
target: mTAAR1 (Mus musculus); experiment: Radioligand binding, mouse TAAR1 ([3H]RO5166017)
Sequence (Q923Y8 whole entry): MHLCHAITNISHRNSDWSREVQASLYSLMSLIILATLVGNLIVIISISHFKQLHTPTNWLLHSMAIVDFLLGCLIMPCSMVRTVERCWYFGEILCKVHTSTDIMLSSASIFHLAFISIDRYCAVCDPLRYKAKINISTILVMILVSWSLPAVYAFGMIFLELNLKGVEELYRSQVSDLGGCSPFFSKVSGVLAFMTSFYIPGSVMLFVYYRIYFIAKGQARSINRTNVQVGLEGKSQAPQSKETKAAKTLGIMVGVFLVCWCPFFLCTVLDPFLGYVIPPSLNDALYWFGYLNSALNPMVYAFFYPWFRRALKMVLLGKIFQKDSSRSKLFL
pKi: −log10 of the molar value.
ENDPOINT_LABEL: pKi

MOLECULE	RECORDED_MEASUREMENT
COc1cc(OCc2ccccc2)cc(OC)c1CC(C)N (stereo not drawn)	6.72
COc1cc(OCC(F)(F)F)cc(OC)c1CC(C)N (stereo not drawn)	6.39
C=CCOc1cc(OC)c(CC(C)N)c(OC)c1 (stereo not drawn)	6.57
COc1cc(OCC(F)F)cc(OC)c1CCN	6.66
COc1cc(OCC(F)F)cc(OC)c1CC(C)N (stereo not drawn)	6.30
COc1cc(OCCF)cc(OC)c1CC(C)N (stereo not drawn)	6.25
C=C(C)COc1cc(OC)c(CC(C)N)c(OC)c1 (stereo not drawn)	6.60
COc1cc(OC(F)F)cc(OC)c1CCN	6.17
CCOc1cc(OC)c(CC(C)N)c(OC)c1 (stereo not drawn)	6.40
